Values were extracted from patent US9199947B2.

- SYSTEM: Recombinant human cathepsin A (Homo sapiens (Human))
- Sequence (P10619 29-326): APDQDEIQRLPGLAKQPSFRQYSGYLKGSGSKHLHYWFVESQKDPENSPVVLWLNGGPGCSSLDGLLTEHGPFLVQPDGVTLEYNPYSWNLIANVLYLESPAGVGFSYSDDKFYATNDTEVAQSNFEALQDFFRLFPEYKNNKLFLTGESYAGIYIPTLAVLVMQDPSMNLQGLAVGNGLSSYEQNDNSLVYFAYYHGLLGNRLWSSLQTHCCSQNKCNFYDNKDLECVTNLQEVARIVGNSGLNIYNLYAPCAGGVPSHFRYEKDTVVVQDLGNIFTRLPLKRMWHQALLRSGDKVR
- Sequence (P10619 327-480): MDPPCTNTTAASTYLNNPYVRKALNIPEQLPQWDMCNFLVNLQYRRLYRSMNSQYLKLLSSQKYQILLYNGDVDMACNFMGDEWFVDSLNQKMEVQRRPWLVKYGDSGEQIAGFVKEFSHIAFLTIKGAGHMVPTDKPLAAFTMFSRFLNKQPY
- PROCEDURE_DETAILS: Cathepsin A inhibitory activity (Bodipy FL-labeled bradykinin substrate, microfluidic capillary electrophoresis)
- Assay type: biochemical
- CONDITION_DETAILS: Cathepsin A inhibitory activity, read-out: CATHA IC50
IC50 under 2000 nM gets MET, anything at or over 2000 nM gets NOT MET.

Example entries and their recorded answers appear below.
Cc1ccc(-c2cc(F)cc(C(CC(=O)O)c3ncco3)c2)c(F)c1 (centres unmarked) [compound 125]    MET
O=C(O)CC(c1cc(F)cc(-c2ccccc2F)c1)c1ncco1 (centres unmarked) [compound 133]    MET
CC(=O)c1ccccc1-c1cc(F)cc(C(CC(=O)O)c2ncc(C)s2)c1 (centres unmarked) [compound 121]    MET
Cc1cnc(C(CC(=O)O)c2cc(F)cc(-c3ccccc3C(=O)N(C)C)c2)s1 (centres unmarked) [compound 132]    MET

Please turn your attention to the following entry.
Please determine if Cc1nnc(C(CC(=O)O)c2cccc(-c3ccncc3)c2)o1 (centres unmarked) [compound 148] is below 2000 nM in terms of IC50. NOT MET
